# targetSystem: KCNQ 2/3 channels (Homo sapiens, UniProt O43525+O43526)
# assayText: KCNQ 2/3 channel activation, thallium flux FLIPR assay (BTC-AM dye)
# conditions: HEK293 cells stably expressing human KCNQ2 and KCNQ3 subunits; thallium-induced fluorescence, 4 min compound incubation
readoutKind: log10 EC50 (log10 of the value in µM)

{"columns": ["molecule", "valueObserved"],
 "data": [
  ["O=C(Cc1ccc(OC(F)(F)F)cc1)Nn1nc(N2CCOCC2)c2ccccc2c1=O [Example 132]", 0.23],
  ["N#Cc1ccc(S(=O)(=O)c2nn(NC(=O)Cc3ccc(Cl)cc3)c(=O)c3ccccc23)cc1 [Example 222]", -1.01],
  ["O=C(CC12CC3CC(CC1C3)C2)Nn1nc(N2CCOCC2)c2ccccc2c1=O [Example 210]", -0.79],
  ["COc1ccc(-c2nn(NC(=O)CC3CC4CCC3C4)c(=O)c3ccccc23)cn1 (racemic) [Example 26]", -0.51],
  ["O=C(CC1CC2CCC1C2)Nn1nc(C2=CCOCC2)c2ccccc2c1=O (racemic) [Example 6]", -0.29],
  ["Cc1cccc(CC(=O)Nn2nc(S(=O)(=O)c3ccccc3)c3ccccc3c2=O)c1 [Example 207]", -0.51],
  ["CCC1CN(c2nn(NC(=O)Cc3ccc(Cl)cc3)c(=O)c3ccccc23)CCO1 (centres unmarked) [Example 221]", -0.49],
  ["O=C(CC1CC2CCC1C2)Nn1nc(-c2ccnc(C(F)(F)F)c2)c2ccccc2c1=O (racemic) [Example 76]", -0.90]
]}
